Test system: 575 putative partners (preys) of 22 WT SH3-containing proteins
ASSAY SUMMARY: DHFR-PCA on solid medium, WT and SH3-deleted baits (Fig. 1B)
Format: cell-based, Saccharomyces cerevisiae
Design: key: 0: SH3-independent; 1: SH3-dependent PPIs; 2: SH3-inhibited PPIs
TEST CONDITIONS: bait SLA1-3, label = prey
TEST READOUT: Score
Please reply with the number alone, leaving off any unit.

Please supply the value of reported Score for the item YNL307C (protein, UniProt P21965 2-375, looked up) Protein kinase MCK1: STEEQNGVPLQRGSEFIADDVTSNKSNNTRRMLVKEYRKIGRGAFGTVVQAYLTQDKKNWLGPFAIKKVPAHTEYKSRELQILRIADHPNIVKLQYFFTHLSPQDNKVYQHLAMECLPETLQIEINRYVTNKLEMPLKHIRLYTYQIARGMLYLHGLGVCHRDIKPSNVLVDPETGVLKICDFGSAKKLEHNQPSISYICSRFYRAPELIIGCTQYTTQIDIWGLGCVMGEMLIGKAIFQGQEPLLQLREIAKLLGPPDKRFIFFSNPAYDGPLFSKPLFSGSSQQRFEKYFGHSGPDGIDLLMKILVYEPQQRLSPRRILAHQFFNELRNDDTFLPRGFTEPIKLPNLFDFNDFELQILGEFADKIKPTKVAE 0
